- System: HEK293 cells
- Assay type: cell-based, human
- RUN PARAMETERS: luminescence from secreted Gluc in supernatant 24 hours after transfection of HEK293 cells; circular RNA encoding Gluc with the named IRES (UTR truncated to 675 nt)
Threshold check on Expression: at or above 100000 gives yes (1), strictly below gives no (0).

Solved cases (4 shown):
| MOLECULE | CATEGORY |
| --- | --- |
| Canine distemper virus (nucleic acid, listed as Canine morbillivirus, chemistry not fully specified) DNA: ACCAGACAAAGTTGGCTAAGGATAGTTAAATTATTGAATATTTTATTAAAAACTTAGGGTCAATGATCCTACCTTAAAGAACAAGGCTAGGGTTCAGACCTACCAAT | yes (1) |
| Antarctic penguin virus A (nucleic acid, chemistry not fully specified; the letters are possibly those of the target site) DNA: CTAGGAGACTACGCAGTGGGATAAGATGACTATGATGTCGTACGGGCAGAAGCCAGTACAGTCGAAGTCGAGACCGACGTCGAGGATTTGACTCTGCCTGACCTAGTGCCATC | no (0) |
| Mumps virus (nucleic acid, listed as Mumps orthorubulavirus) DNA: ACCAAGGGGAAAATGAAGATGGGATGTTGGTAGAACAAATAGTGTAAGAAACAGTAAGCCCGGAAGTGGTGTTTTGCGATTTCGAGGCCGGGCTCGATCCTCACCTTTCATTGTCGATAGGGGACATTTTGACACTACCTGGAAA | yes (1) |
| Hubei sobemo-like virus 3 (nucleic acid) DNA: GAGATGTTTGCGTGGGCCGTTGCGCTGCGGGCGGCCCACCTCCCTACGGGGACCGTGAGACACCGCTGGGGAAGGCCCCCACCCCCGGCCAAGGGGATCCTGCCGAGAGGCAGGAGAAAGAGGCCCAGCCCTCTGGGGCGCCTTTAGGGGTGCCTGGGAGGGAAGTACCCGAGCCGGGCGGCCGGTCGGGTGCGGCTGTGCAGTTCGAGGCTAACCGTAAGGAAGGCCTGAGCTGCCTCGGCTTGTCGGAAAGGAAGACGAAGGCACTTATCAAGGCTTTCAGGAAGCAGGAGCGCAATTACAGCGCGCGCCGTGCGGCCTGGATTAACCGCATTTGGCCG | yes (1) |

Please examine the following record next.
Prompt line: Would you say Wobbly possum disease virus (nucleic acid) DNA: CGGCTGTGAGTGCTTAGCATATGCTAGAGTACTACAGCCGGGTGTTGGAGTCATATGCACTGGTTGCCTGTATAATAGTCGGGATCTGTCTGACCTACATTATCTTTGGGAGTTGCTTATCACGACAATTCTCGAAGTGTCTGTCGACAGCTTACCCCCGATTCGACAAGGCCCCTTGTCCACCGCAGACCTATCGATTTTCAACGAGAACACTATCAGAGGTTTAAATTTAAAACTCACCAACA shows Expression at minimum 100000?
Response line: yes (1)
